pIC50: −log10 of the molar value.
What follows is literature data on pIC50 for Inosine-5'-monophosphate dehydrogenase 2 (Homo sapiens, UniProt P12268).
Measurement Name: pIC50

- Cc1cc(C(C)(C)NC(=O)c2cc3[nH]c4ccccc4c(=O)c3cc2F)cnc1N1CCOCC1: 7.96

[1] COc1cc2[nH]c(=S)n(Cc3ccncc3)c(=O)c2cc1-c1cnco1
[2] O=C(COc1cccc(C(=O)/C=C/c2ccccc2)c1)Nc1ccc2c(c1)COC2=O
[3] Cn1cc(C#N)c2ccc(Nc3ncc(-c4cccc(CNC(=O)c5ccc6ccccc6c5)c4)o3)cc21
Could you please order the items by pIC50, going from the lowest number to the highest? Rank the items, then write their labels in that order.
2, 1, 3

[1] Cc1ccc(NC(=O)Nc2ccc3c(-c4cnco4)c[nH]c3c2)cc1
[2] COc1cc2[nH]c(=O)n(CCn3ccnc3)c(=O)c2cc1-c1cnco1
[3] COc1cc2[nH]c(Cc3ccccc3)c(C#N)c2cc1-c1cnco1
List from greatest to least pIC50. Ranked list of labels, please, in the requested order.
1, 2, 3

[P] COc1cc(Nc2ncc(-c3ccccc3N(C)C(=O)CN(C)C)o2)ccc1-c1cnco1
[Q] COc1cc2[nH]c(-c3ccccc3)c(C=O)c2cc1-c1cnco1
Lowest pIC50? choose P or Q State the label of the item chosen.
Q
(Q: 6.64, P: 7.82)
